Target: GlcNAc(b1-6)Gal(b1-4)GlcNAc
Assay: glycan array binding signal (z-score within array); higher = stronger binding
Conditions: glycan notation: IUPAC condensed, linker removed
This is one part of a sample in which the strongest signals are shown more often than they occur.
PROPERTY: glycan array binding signal (z-score)
Lab note: record the figure alone, no unit after it.

## Input GET /values?readout=glycan array binding signal (z-score)&item= Clrb (Mus musculus) (protein) ITGATKTEQIPVNKTYAACPQNWIGVENKCFYFSEYPSNWTFAQAFCMAQEAQLARFDNQDELNFLMRYKANFDSWIGLHRESSEHPWKWTDNTEYNNTIPIRGEERFAYLNNNGISSTRIYSLRMWICSKLNSYSLHCQTPFFPSGTKHHHHHHHHG
## Output 1.87

Next up:
## Input GET /values?readout=glycan array binding signal (z-score)&item= GIINTLQKYYCRVRGGRCAVLSCLPKEEQIGKCSTRGRKCCRRKK [Beta-Defensin 3 (Homo sapiens), P81534]
## Output -0.369

// provenance: the supplement of paper PMC8728848
